Source: the supplement of paper PMC8728848

- tgt: Gal(b1-3)[Fuc(a1-4)]GlcNAc(b1-6)GalNAc
- method_notes: glycan array binding signal (z-score within array); higher = stronger binding
- condition_info: glycan notation: IUPAC condensed, linker removed
Many of the other results were omitted from the sample, so the strongest signals are more common in it than they were.
endpoint_label: glycan array binding signal (z-score)

1) CALR truncated at D342 (Homo sapiens) (protein) EPAVYFKEQFLDGDGWTSRWIESKHKSDFGKFVLSSGKFYGDEEKDKGLQTSQDARFYALSASFEPFSNKGQTLVVQFTVKHEQNIDCGGGYVKLFPNSLDQTDMHGDSEYNIMFGPDICGPGTKKVHVIFNYKGKNVLINKDIRCKDDEFTHLYTLIVRPDNTYEVKIDNSQVESGSLEDDWDFLPPKKIKDPDASKPEDWDERAKIDDPTDSKPEDWDKPEHIPDPDAKKPEDWDEEMDGEWEPPVIQNPEYKGEWKPRQIDNPDYKGTWIHPEIDNPEYSPDPSIYAYDNFGVLGLDLWQVKSGTIFDNFLITNDEAYAEEFGNETWGVTKAAEKQMKD	0.999
2) EPL1 (Trichoderma atroviride), A0PCX2 (protein) MQLSNLFKLALFTAAVSADTVSYDTGYDDASRSLTVVSCSDGTNGLITRYHWQTQGQIPRFPYIGGAQAVAGWNSPNCGTCWKLTYSGKTIYVLAIDHTAAGFNIGLDAMNALTNGNAVALGRVSATASQVAVSNCGL	-0.249
3) his-Lectin-24A (Drosophila melanogaster) (protein) MFRLSVLVLNLLLVSHEFSAGTAKIEIQPLPALCNGYCFPTLKPVMEYVAIHQDKWNTCTEILANEARKDQIQLNIQLDALKADVSNIKASQLSKDEKLDRMEREQFAMHESLETINRYLTVKLDRTKLQLEAIKNTMDYMKAQMDGYFSAINGVQCLQPGFEKIGDRYFYIEEDVELNWLDAQAKCRRMGGHLASIKTKQEFDAIVEKLDDSKSYFLGVNENTKTGDFVSAASGKSCLYHEWGPGEPHHNNDQERCVSILRKLMHVGNCTYEKRFICQYGI	2.34
